Origin of values: ChEMBL document CHEMBL1201862

- Test system: MDA-N
- RUN_DESCRIPTION: NCI tumour cell line growth inhibition, 48 h
The source made the active and inactive calls. Cut-off read from the data, not from the text of the source: active = GI50 up to about 1.1 µM and inactive = higher.
API: response.call in t (active), f (inactive)

## Task Entry NC(=O)C(=CNC(N)=S)C(N)=O : call = ?
## Result f

## Task Entry CNC(=O)OCc1nc(N=[N+]=[N-])n(C)c1COC(=O)NC : call = ?
## Result f

* * *

- Test system: A549
- RUN_DESCRIPTION: NCI tumour cell line growth inhibition, 48 h
Calls of active or inactive are those of the source. Rule as the data show it: active = GI50 up to about 1.1 µM and inactive = higher.
API: response.call in active, inactive

Observe how each entry below is paired with its result.
[
  {
    "COMPOUND": "N#C[C@H](C(=O)c1ccccc1F)c1nc2ccccc2[nH]1",
    "ASSIGNED_CATEGORY": "inactive"
  },
  {
    "COMPOUND": "Cn1ncc2cc3c(Nc4ccc(Cl)cc4)cccc3nc21",
    "ASSIGNED_CATEGORY": "inactive"
  },
  {
    "COMPOUND": "CCOC(=O)C1=C(C)N(c2ccc(Cl)cc2)C2(O)C=CC(=O)C3C(=O)N(c4ccccc4)C(=O)C132 (configuration not stated)",
    "ASSIGNED_CATEGORY": "inactive"
  },
  {
    "COMPOUND": "[O-][Cl+3]([O-])([O-])[O-].c1ccc(-c2csc3c4ccccc4c4ccccc4[n+]23)cc1",
    "ASSIGNED_CATEGORY": "inactive"
  },
  {
    "COMPOUND": "COC(C)(C)C(O)C(O)C[C@H](C)C1CC=C2C1(C)CCC1[C@@]3(C)CCC(OC(C)=O)C(C)(C)C3CC(OC3OC(COC(C)=O)C(O)C(O)C3O)[C@@]21C (some centres not stated)",
    "ASSIGNED_CATEGORY": "inactive"
  }
]

## Task Entry COCCO : call = ?
## Result inactive

## Task Entry C=C(C)[C@@H]1CC[C@]2(C(=O)O)CC[C@]3(C)[C@H](CCC4[C@@]5(C)CC[C@H](C(=O)/C=C/c6ccc(O)c(O)c6)C(C)(C)[C@@H]5CC[C@]43C)[C@@H]12 (some centres not stated) : call = ?
## Result inactive

## Task Entry O=c1[nH]c(=O)n(COCCO)c2ccc(Br)cc12 : call = ?
## Result inactive

## Task Entry c1ccc(C2CC(NC3CCCCC3)=Nc3ccccc3N2)cc1 (configuration not stated) : call = ?
## Result inactive

## Task Entry Cc1nn(-c2ccccc2)c2nc3ccc(Cl)cc3c(-c3ccccc3)c12 : call = ?
## Result inactive
